- assayedTarget: T1, RSV F ectodomain stabilized in the postfusion conformation (F ΔFP), subtype A (Respiratory syncytial virus subtype A, UniProt P03420 26-109; P03420 147-524)
- T1 construct: extracellular domain; trimer; furin-cleaved; also called Postfusion subtype A
- protocolNotes: BLI, IgG on AHQ sensor, 100 nM antigen
Measured pKd, listed per entry.
On this scale, pKd is minus log10 of a concentration expressed in M (mol/L).

Look over these answered cases.
ADI-14475 (antibody, V domains shown, full-length IgG (yeast-expressed); also called Antibody Number 37; Ab# 37) VH: QVQLVQSGPALVKPTQTLTLTCTFSGFSLTTARMCVSWIRQPPGKALEWLARIDWDDDKSYSTSLKTRLTIAKDTSKNQVVLTMTNMGPADTATYYCVRTPIYASGGYYLSYFDSWGQGTLVTVSS VL: DIVMTQSPSSLSASVGDSVTITCRASQTIASYVNWYQHKPGQAPNLLIYAASILHSGVPSRFRGGGSGTDFTLTINSLQPEDFATYYCQQSYSTPYTFGQGTKVDIK ... 9.52
ADI-14471 (antibody, V domains shown, full-length IgG (yeast-expressed); also called Antibody Number 34; Ab# 34) VH: QVQLVQSGAEVKKPGSSVKVSCKASGGTFGSYAVIWVRQAPGQGLEWMGHIIPVFGTINNAQKFQGRLTLSADESTGTVYMGLSSLRSDDTAVYFCATKRYCSDPSCHGLWYFDLWGRGTLVTVSS VL: DIRLTQSPLSLPVTPGEPASISCRSSQSLLDSDDGNTYLDWYLQKPGQSPQVLIYMLSYRASGVPDRFSGSGSGTDFTLKISRVEAEDVGVYYCMQRAEFPYTFGQGTKLEIK ... 9.67
ADI-14447 (antibody, V domains shown, full-length IgG (yeast-expressed); also called Antibody Number 10; Ab# 10) VH: QVQLVQSGAEMKKPGSSVTVSCKASGVPFTSYTYSWVRQAPGQGLEWMGRVLPVIGSAKYPQKFQGTVTITADKSTSTIYLQLSSLRPEDTAIYFCAGSLLAGYDREFDSWGQGTLVTVSS VL: DIQMTQSPSSLSASVGDRITITCRASQGISNWLAWYQQKPGKAPKSLIYEASTLQSGVSSRFSGSGSGTHFTLTIASLQPEDFATYYCQQYYIYPLTFGGGTKLEIK ... 9.47

Request: Which pKd is listed for ADI-14473 (antibody, V domains shown, full-length IgG (yeast-expressed); also called Antibody Number 35; Ab# 35) VH: QVQLVQSGAEVKKPGEPLRISCKGSGYTFTSYWISWVRQMPGTGLEWMGRIDPSDSYTYSSPSFQGHVTISVDKSISTAYLQWSSLKASDTAIYYCARHKENYDFWDFWGQGTLVTVSS VL: ETTLTQSPDSLAVSLGERATINCKSSQTIFFNSNNKISLAWYQQKPGQPPKLLISWASTRESGVPDRFSGSGSGTDFTLTISSLQPEDVAVYFCQQYYSSAFFGPGTRLEIK ?
Result: 9.65

Request: Which pKd is listed for ADI-14438 (antibody, V domains shown, full-length IgG (yeast-expressed); also called Antibody Number 1; Ab# 1) VH: QVQLVQSGAEVKKPGASVKVSCRASGFVFTSYDINWVRQAPGQGLEWMGRMNAHTGQVTYAQKFQDKVSMTRDVSITTAYLELSRLASEDTAVYYCARPDINWGQDAFDVWGQGTMVTVSS VL: DIRMTQSPSTLSASIGARVTITCRASQNIGNFLAWYQQKPGKAPKLLIYKASTLDPGVPSRFSGSGSGTEFTLTITSLQPDDFATFYCQQYKSDPTFGQGTKVEIK ?
Result: 7.93
